Origin of values: patent US10047074B2

- test.system: TDO (A172) (Homo sapiens)
- Construct: This assay utilised cancer cells which expressed either TDO (A172) or IDO (SKOV3); endogenous in cells; host or cells: A172 (human glioblastoma)
- Sequence (P48775 whole entry): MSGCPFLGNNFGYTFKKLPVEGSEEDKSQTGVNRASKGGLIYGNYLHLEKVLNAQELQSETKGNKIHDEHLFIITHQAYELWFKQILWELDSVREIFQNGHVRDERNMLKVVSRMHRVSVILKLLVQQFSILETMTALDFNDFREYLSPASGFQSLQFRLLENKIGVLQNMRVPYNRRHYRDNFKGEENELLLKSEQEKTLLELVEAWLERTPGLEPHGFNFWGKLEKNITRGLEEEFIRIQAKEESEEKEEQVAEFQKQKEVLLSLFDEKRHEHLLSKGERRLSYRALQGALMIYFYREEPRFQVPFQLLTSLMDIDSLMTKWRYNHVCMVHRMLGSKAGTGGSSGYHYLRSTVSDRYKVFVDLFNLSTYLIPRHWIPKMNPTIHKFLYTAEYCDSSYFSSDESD
- procedure.details: A172 Kynurenine cell based assay
- assay.conditions: A172 human glioblastoma cells expressing TDO; kynurenine production, 48 hours
observed.property: A172 Kynurenine cell based assay pIC50

compound | test.system | observed.property | observed.value
Nc1oncc1-c1cccc(F)c1 | TDO (A172) (Homo sapiens) | A172 Kynurenine cell based assay pIC50 | +++ (+++ = pIC50 ≥ 5.50)
Nc1oncc1-c1ccc(Cl)cc1 | TDO (A172) (Homo sapiens) | A172 Kynurenine cell based assay pIC50 | +++ (+++ = pIC50 ≥ 5.50)
CN1CCCCC1C(=O)Nc1oncc1-c1ccccc1 (stereo not drawn) | TDO (A172) (Homo sapiens) | A172 Kynurenine cell based assay pIC50 | + (+ = pIC50 4.00-4.49)
O=S(=O)(Nc1cnoc1-c1ccccc1)c1ccc2ccccc2c1 | TDO (A172) (Homo sapiens) | A172 Kynurenine cell based assay pIC50 | + (+ = pIC50 4.00-4.49)
CCOC(=O)CC(=O)Nc1oncc1-c1ccccc1 | TDO (A172) (Homo sapiens) | A172 Kynurenine cell based assay pIC50 | +++ (+++ = pIC50 ≥ 5.50)

Look at this compound and give its reported A172 Kynurenine cell based assay pIC50. Nc1oncc1-c1ccccc1[N+](=O)[O-] +/− (+/− = pIC50 < 4.00)

Next up: CS(=O)(=O)c1ccc(Cl)c(S(=O)(=O)Nc2cnoc2-c2ccccc2)c1 +/− (+/− = pIC50 < 4.00)
